Cited source: patent US20240409617A1

Molecular target: S1
Test: BLI
quantityMeasured: Kd
Please state the value followed by its unit.

Quick note, Kd for Ab 21 (scFv, V domains shown) VH: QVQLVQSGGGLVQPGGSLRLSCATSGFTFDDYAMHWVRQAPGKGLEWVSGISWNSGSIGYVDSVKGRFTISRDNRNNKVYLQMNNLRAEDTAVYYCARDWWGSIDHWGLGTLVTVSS VL: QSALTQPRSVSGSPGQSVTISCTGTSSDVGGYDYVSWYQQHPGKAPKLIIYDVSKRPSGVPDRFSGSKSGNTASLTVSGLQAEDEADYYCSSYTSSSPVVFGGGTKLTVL landed at 1.28 nM

Quick note, Kd for Ab 16 (scFv, V domains shown) VH: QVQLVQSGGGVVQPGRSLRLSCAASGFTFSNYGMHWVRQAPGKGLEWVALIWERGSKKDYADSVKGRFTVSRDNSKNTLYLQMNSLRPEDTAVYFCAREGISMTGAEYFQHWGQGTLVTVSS VL: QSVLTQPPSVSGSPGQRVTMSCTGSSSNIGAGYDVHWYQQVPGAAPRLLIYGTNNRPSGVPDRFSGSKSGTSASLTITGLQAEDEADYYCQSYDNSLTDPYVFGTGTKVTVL landed at 2.18 nM

Quick note, Kd for Ab 36 (scFv, V domains shown) VH: QVQLQQSGPGLVKPSQTLSLTCAIFGDSVTSNSAAWNWIRQSPSRGLEWLGRTYYSSKWYNDYAVSVKSRVTINADTSKNQLSLQLNSVTPEDTAVYYCARGWLRLSFDPWGQGTLVTVSS VL: NFMLTQPHSVSESPGKTVTISCTGSSGSIASNYVQWLQQRLGSAPTTVIYEDNQRPSGVPDRFSGSIDSSSNSASLTISGLKTEDEADYYCQSYDPNNHGVVFGGGTKLTVL landed at 0.0306 nM

Quick note, Kd for Ab 31 (scFv, V domains shown) VH: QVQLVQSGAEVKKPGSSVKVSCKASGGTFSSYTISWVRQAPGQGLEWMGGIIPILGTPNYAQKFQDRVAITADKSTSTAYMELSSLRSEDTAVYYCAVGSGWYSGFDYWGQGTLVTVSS VL: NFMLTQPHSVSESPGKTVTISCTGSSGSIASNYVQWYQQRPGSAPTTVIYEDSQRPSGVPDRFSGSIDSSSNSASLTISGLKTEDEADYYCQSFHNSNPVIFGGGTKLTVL landed at 2040 nM

Quick note, Kd for Ab 20 (scFv, V domains shown) VH: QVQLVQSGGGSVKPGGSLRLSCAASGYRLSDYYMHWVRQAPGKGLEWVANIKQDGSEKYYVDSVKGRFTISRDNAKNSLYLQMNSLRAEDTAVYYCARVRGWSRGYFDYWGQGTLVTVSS VL: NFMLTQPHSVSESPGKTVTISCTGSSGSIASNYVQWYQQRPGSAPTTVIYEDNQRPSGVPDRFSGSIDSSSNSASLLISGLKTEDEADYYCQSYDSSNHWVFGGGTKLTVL landed at 5.01 nM
